Test system: SW1783 (Low Grade Glioma);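 note: after 72 h of two-drug dosing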
TEST_DETAILS: Bliss excess, mean over the matrix (fraction); higher = more synergy
Tick MET if Bliss excess is -0.01 or greater. Tick NOT MET if Bliss excess is less than -0.01.

Prompt: Check the entry Cc1c2c(nn1C)CSCc1cc(n(C)n1)CSc1cc(c3ccccc3c1)OCCCc1c(C(=O)O)n(C)c3c-2c(Cl)ccc13 [AZD5991] + CCN(CCO)CCCOc1ccc2c(Nc3cc(CC(=O)Nc4cccc(F)c4)[nH]n3)ncnc2c1 [AZD2811] (first compound max 1 µM, 7x7, partner max 1 µM) : does Bliss excess equal or exceed -0.01?
Response: NOT MET

Prompt: Would you say CCN(CCO)CCCOc1ccc2c(Nc3cc(CC(=O)Nc4cccc(F)c4)[nH]n3)ncnc2c1 [AZD2811] + C[C@@H]1COCCN1C2=NC(=NC(=C2)C3(CC3)[S@](=N)(=O)C)C4=C5C=CNC5=NC=C4 [AZD6738] (first compound max 1 µM, 7x7, partner max 10 µM) shows Bliss excess at minimum -0.01?
Response: NOT MET

Prompt: Decide: is the reported value of Bliss excess for CN(CCO)CC[C@H](CSc1ccccc1)Nc1ccc(S(=O)(=O)NC(=O)c2ccc(N3CCC([C@@H](O)c4ccccc4-c4ccc(Cl)cc4)CC3)cc2)cc1S(=O)(=O)C(F)(F)F [AZD4320] + C=CCn1c(=O)c2cnc(Nc3ccc(N4CCN(C)CC4)cc3)nc2n1-c1cccc(C(C)(C)O)n1 [AZD1775] (first compound max 1 µM, partner max 1 µM) equal to or greater than -0.01?
Response: MET

Prompt: Does the compound CCc1c2c(nc3ccc(O)cc13)-c1cc3c(c(=O)n1C2)COC(=O)[C@]3(O)CC [SN-38] + CN(C)CCCOc1ccc(-c2ccc3ncc4c(c3c2)n(C2CCOCC2)c(=O)n4C)cn1 [AZD0156] (first compound max 0.3 µM, 7x7, partner max 1 µM) have recorded Bliss excess that is -0.01 or more?
Response: NOT MET

Prompt: In plain terms: is recorded Bliss excess at least -0.01 for COc1cccc2c1C(=O)c1c(O)c3c(c(O)c1C2=O)C[C@@](O)(C(=O)CO)C[C@@H]3O[C@H]1C[C@H](N)[C@H](O)[C@H](C)O1 [Doxorubicin] + Cc1cc2ncnn2cc1Nc1ncc2c(n1)n(C1CCOCC1)c(=O)n2C [AZD7648] (first compound max 1 µM, 7x7, partner max 10 µM) ?
Response: MET

Prompt: Given C=CCn1c(=O)c2cnc(Nc3ccc(N4CCN(C)CC4)cc3)nc2n1-c1cccc(C(C)(C)O)n1 [AZD1775] + Nc1ccn([C@@H]2O[C@H](CO)[C@@H](O)C2(F)F)c(=O)n1 [Gemcitabine] (first compound max 1 µM, partner max 0.3 µM) , state whether its Bliss excess is at least -0.01.
Response: MET

Prompt: Please indicate if the recorded Bliss excess for COc1cccc(OCCCN)c1-c1cc(Nc2cnc(C#N)cn2)n[nH]1 [Prexasertib] + O=C(c1cc(Cc2n[nH]c(=O)c3ccccc23)ccc1F)N1CCN(C(=O)C2CC2)CC1 [Olaparib] (first compound max 1 µM, 7x7, partner max 10 µM) meets or exceeds -0.01.
Response: NOT MET

Reference source: the supplement of paper PMC11061612
